// Ratio lookup, one value per entry
Species on record: Rattus norvegicus
Test: Ratio of IC50 against 5-LO and COX

Known results for compounds:
CCO/C=N/c1noc(-c2cc(C(C)(C)C)c(O)c(C(C)(C)C)c2)n1; 0.21
CC(C)(C)c1cc(-c2nc(CCl)no2)cc(C(C)(C)C)c1O; 7.8

Qu. Need Ratio of `CC(C)(C)c1cc(-c2nnc(S)s2)cc(C(C)(C)C)c1O.C[N+](C)(C)CC[O-]` , thanks.
Ans. 3.5

Qu. Need Ratio of `CC(C)(C)c1cc(-c2nsc(NC#N)n2)cc(C(C)(C)C)c1O.C[N+](C)(C)CC[O-]` , thanks.
Ans. 173

Values were extracted from ChEMBL document CHEMBL1125307.
